Target: human PAH with the R408W mutation (Homo sapiens, UniProt P00439, R408W)
Construct: expressed in transfected cells
Sequence (P00439 1-452 R408W): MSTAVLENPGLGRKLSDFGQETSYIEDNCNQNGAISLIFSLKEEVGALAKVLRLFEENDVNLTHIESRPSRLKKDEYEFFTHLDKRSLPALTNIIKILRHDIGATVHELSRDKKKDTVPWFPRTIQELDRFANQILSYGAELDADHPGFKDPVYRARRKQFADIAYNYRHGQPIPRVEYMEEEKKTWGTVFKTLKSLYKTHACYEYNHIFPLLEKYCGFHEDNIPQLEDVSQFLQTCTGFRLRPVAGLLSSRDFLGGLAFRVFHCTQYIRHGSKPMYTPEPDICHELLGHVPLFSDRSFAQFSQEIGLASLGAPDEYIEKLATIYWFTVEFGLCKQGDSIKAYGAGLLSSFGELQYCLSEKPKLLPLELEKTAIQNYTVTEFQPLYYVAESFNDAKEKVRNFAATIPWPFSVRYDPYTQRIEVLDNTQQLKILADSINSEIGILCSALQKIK
Test: Cell Based Phenylalanine Flux Assay
Details: A375 cells expressing human R408W PAH; 24 hrs compound incubation; 13C-Tyrosine by LC-MS; average where tested multiple times; read-out: AC50
AC50 values for the molecules below.

Example entries and their recorded answers appear below.
> print(dat)
                                   molecule  metric.name       result
1  O=C(N1CCc2[nH]cnc2[C@H]1c1nc2ccccc2s1)C1(CF)CC1 [Example 1255]         AC50  0.5 to 1 µM
2  O=C(c1ccon1)N1CCc2[nH]cnc2[C@@H]1c1nc2ccc(Br)cc2[nH]1 [Example 982]         AC50    1 to 5 µM

// fetch human PAH with the R408W mutation (Homo sapiens, UniProt P00439, R408W) AC50 for Cc1ccc2sc([C@H]3c4nc[nH]c4CCN3C(=O)c3cnco3)nc2c1 [Example 2174] > 5 µM

What about CC(C)n1ncnc1C(=O)N1CCc2[nH]cnc2[C@@H]1c1nc2c(F)cccc2s1 [Example 2040] ? 1 to 5 µM

Next up: Cc1c(C(=O)N2CCc3[nH]cnc3[C@@H]2c2nc3c(F)cccc3s2)cnn1CC(F)(F)F [Example 1920] > 5 µM

Follow-up entry: Cc1ncoc1C(=O)N1CC2(CC2)c2[nH]cnc2[C@H]1c1nc2ccccc2s1 [Example 2152] 0.5 to 1 µM

What about this molecule? O=C(c1ncn2ccccc12)N1CCc2[nH]cnc2[C@@H]1c1nc2ccccc2s1 [Example 1028] > 5 µM

Request: Cc1nnc(C(=O)N2CCc3[nH]cnc3[C@@H]2c2nc3c(F)cccc3s2)s1 [Example 1251] > 5 µM

###

Examples of molecules with documented AC50 follow.
target: human PAH with the R408W mutation (Homo sapiens, UniProt P00439, R408W); construct: expressed in transfected cells; experiment: Cell Based Phenylalanine Flux Assay; details: A375 cells expressing human R408W PAH; 24 hrs compound incubation; 13C-Tyrosine by LC-MS; average where tested multiple times; read-out: AC50

> print(dat)
                              line.notation  metric.name       result
1  O=C(c1cncs1)N1CCc2[nH]cnc2[C@@H]1c1nc2ccccc2[nH]1         AC50       > 5 µM
2  CC(C)(O)c1cccc2c(C(=O)N3CCc4[nH]cnc4[C@H]3c3nc4ccccc4s3)cnn12         AC50     < 0.5 µM
3  O=C(c1nncs1)N1CCc2[nH]cnc2[C@@H]1c1nc2cccc(F)c2s1         AC50    1 to 5 µM
4  O=C(c1oc(-c2ccccn2)nc1C1CC1)N1CCc2[nH]cnc2[C@@H]1c1nc2ccccc2s1         AC50       > 5 µM
5  O=C(CCC1CC1)N1CCc2[nH]cnc2[C@@H]1c1nc2ccc(Br)cc2s1         AC50  0.5 to 1 µM
6  c1cnc(N2CCc3[nH]cnc3[C@H]2c2nc3ccccc3s2)nc1         AC50     < 0.5 µM
7  O=C(c1nc2c(F)cccc2s1)N1CCc2[nH]cnc2[C@@H]1c1nc2ccccc2s1         AC50       > 5 µM

Next, consider the following molecule.
Please look up its AC50: O=C(c1nnc(-c2ccccn2)o1)N1CCc2[nH]cnc2[C@@H]1c1nc2c(F)cccc2s1 0.5 to 1 µM

###

Target: human PAH with the R408W mutation (Homo sapiens, UniProt P00439, R408W)
Construct: expressed in transfected cells
Sequence (P00439 1-452 R408W): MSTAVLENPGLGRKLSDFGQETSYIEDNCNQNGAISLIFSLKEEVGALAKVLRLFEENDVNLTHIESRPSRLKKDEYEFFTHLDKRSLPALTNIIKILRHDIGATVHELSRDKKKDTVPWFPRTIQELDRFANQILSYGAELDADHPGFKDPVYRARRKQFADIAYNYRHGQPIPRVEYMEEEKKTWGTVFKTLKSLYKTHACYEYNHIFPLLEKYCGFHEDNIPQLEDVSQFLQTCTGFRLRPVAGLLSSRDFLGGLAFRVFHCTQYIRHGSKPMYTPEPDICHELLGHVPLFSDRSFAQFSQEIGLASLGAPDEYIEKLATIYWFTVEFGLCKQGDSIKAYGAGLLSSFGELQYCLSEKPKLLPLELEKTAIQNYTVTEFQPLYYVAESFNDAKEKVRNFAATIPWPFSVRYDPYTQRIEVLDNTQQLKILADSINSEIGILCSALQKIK
Test: Cell Based Phenylalanine Flux Assay
Details: A375 cells expressing human R408W PAH; 24 hrs compound incubation; 13C-Tyrosine by LC-MS; average where tested multiple times; read-out: AC50
metric.name: AC50

Some compounds with recorded AC50:
> print(dat)
                                   compound           result
1  c1ccc2[nH]c([C@@H]3c4nc[nH]c4CCN3c3nc4ccccc4o3)nc2c1         < 500 nM
2  CC(O)c1nc(Br)c(C(=O)N2CCc3[nH]cnc3[C@H]2c2nc3c(F)cccc3s2)o1 (single isomer, unassigned) [Example 2057]         < 500 nM
3  O=C(c1oc(N2CCOCC2)nc1C(F)(F)F)N1CCc2[nH]cnc2[C@@H]1c1nc2c(F)cccc2s1         < 500 nM
4  O=C(c1cn(CC2CC2)nc1Cl)N1CCc2[nH]cnc2[C@@H]1c1nc2c(F)cccc2s1  1000 to 5000 nM
5  O=C(c1ncc(Cl)s1)N1CCc2[nH]cnc2[C@H]1c1nc2ccc(Br)cc2[nH]1   500 to 1000 nM
6  O=C(c1cn[nH]c1C(F)F)N1CCc2[nH]cnc2[C@H]1c1nc2c(F)cccc2s1         < 500 nM

--- query ---
Which AC50 value belongs to O=C(c1nnc(-c2ccc(C(F)(F)F)cn2)o1)N1CCc2[nH]cnc2[C@H]1c1nc2c(F)cccc2s1 ? 1000 to 5000 nM

###

AC50 values, listed per item
target: human PAH with the R408W mutation (Homo sapiens, UniProt P00439, R408W); construct: expressed in transfected cells; assay: Cell Based Phenylalanine Flux Assay; settings: A375 cells expressing human R408W PAH; 24 hrs with compound; 13C-Tyrosine by LC-MS; average where tested multiple times; read-out: AC50

Fill in: AC50 of CN(C)Cc1ncc(C(=O)N2CCc3[nH]cnc3C2c2nc3ccccc3s2)o1 (centres unmarked) is ___ 1 to 5 µM

What do you get for O=C(c1cnn2cccc(F)c12)N1CCc2[nH]cnc2C1c1nc2ccccc2s1 (centres unmarked) ? > 5 µM

Same question, O=C(Cc1nccs1)N1CCc2[nH]cnc2C1c1nc2ccc(F)cc2s1 (centres unmarked) this time > 5 µM

Ok, now O=C(c1cnn(CC(F)(F)F)c1)N1CCc2[nH]cnc2C1c1nc2ccccc2s1 (centres unmarked) 1 to 5 µM

Would you kindly repeat that for COC(=O)N1CC(C(=O)N2CCc3[nH]cnc3[C@@H]2c2nc3c(F)cccc3s2)C1 (single isomer, unassigned) ? > 5 µM

Would you kindly repeat that for O=C(CCc1nccs1)N1CCc2[nH]cnc2C1c1nc2ccc(Cl)cc2s1 (centres unmarked) ? > 5 µM

Request: N#Cc1nc(NCC(F)(F)F)oc1C(=O)N1CCc2[nH]cnc2C1c1nc2ccccc2s1 (centres unmarked) > 5 µM

Another compound: O=C(CCc1nccs1)N1CCc2nc[nH]c2C1c1nc2cc(Br)ccc2s1 (centres unmarked) 1 to 5 µM

###

Target: human PAH with the R408W mutation (Homo sapiens, UniProt P00439, R408W)
Construct: expressed in transfected cells
Sequence (P00439 1-452 R408W): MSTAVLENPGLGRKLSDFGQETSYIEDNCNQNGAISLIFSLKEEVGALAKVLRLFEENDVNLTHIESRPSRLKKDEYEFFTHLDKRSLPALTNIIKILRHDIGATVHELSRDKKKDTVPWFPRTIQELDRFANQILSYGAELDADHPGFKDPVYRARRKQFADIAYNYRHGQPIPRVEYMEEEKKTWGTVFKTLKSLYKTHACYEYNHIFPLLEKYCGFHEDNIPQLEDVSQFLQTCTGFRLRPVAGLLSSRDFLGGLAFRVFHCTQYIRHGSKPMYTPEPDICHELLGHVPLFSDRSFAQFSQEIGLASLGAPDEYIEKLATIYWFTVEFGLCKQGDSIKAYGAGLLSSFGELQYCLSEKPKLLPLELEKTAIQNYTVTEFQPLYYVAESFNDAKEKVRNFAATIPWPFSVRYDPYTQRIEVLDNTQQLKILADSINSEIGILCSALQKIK
Test: Cell Based Phenylalanine Flux Assay
Details: A375 cells expressing human R408W PAH; 24 hrs compound incubation; 13C-Tyrosine by LC-MS; average where tested multiple times; read-out: AC50
This listing pairs compounds with measured AC50.

> print(dat)
                              line.notation  metric.name    result
1  C[C@H](O)c1nc(C(F)F)c(C(=O)N2CCc3[nH]cnc3[C@H]2c2nc3c(C(F)(F)F)cccc3s2)o1         AC50  < 500 nM

// lookup AC50 | system=human PAH with the R408W mutation (Homo sapiens, UniProt P00439, R408W) | key= O=C(c1oc(-c2ccccn2)nc1C(F)F)N1CCc2[nH]cnc2[C@H]1c1nc2c(F)cccc2s1 < 500 nM

Now the same for O=C(c1cnn2ccc(Br)cc12)N1CCc2[nH]cnc2[C@@H]1c1nc2c(F)cccc2s1 500 to 1000 nM

Another: O=C(N1CCc2[nH]cnc2[C@@H]1c1nc2c(F)cccc2s1)C(F)(F)C1(O)CCC1 1000 to 5000 nM

// query: O=C(c1oc(-c2ccccn2)nc1C1CC1)N1CCc2[nH]cnc2[C@H]1c1nc2c(F)cccc2s1 < 500 nM

Also check Cc1cccc2nc([C@H]3c4nc[nH]c4CCN3C(=O)c3cncs3)sc12 1000 to 5000 nM

Next: COC(C)(C)c1nc(C)c(C(=O)N2CCc3[nH]cnc3[C@H]2c2nc3c(F)cccc3s2)o1 1000 to 5000 nM
